target under test: DAPK1 (Homo sapiens, UniProt P53355)
Sequence (P53355 whole entry): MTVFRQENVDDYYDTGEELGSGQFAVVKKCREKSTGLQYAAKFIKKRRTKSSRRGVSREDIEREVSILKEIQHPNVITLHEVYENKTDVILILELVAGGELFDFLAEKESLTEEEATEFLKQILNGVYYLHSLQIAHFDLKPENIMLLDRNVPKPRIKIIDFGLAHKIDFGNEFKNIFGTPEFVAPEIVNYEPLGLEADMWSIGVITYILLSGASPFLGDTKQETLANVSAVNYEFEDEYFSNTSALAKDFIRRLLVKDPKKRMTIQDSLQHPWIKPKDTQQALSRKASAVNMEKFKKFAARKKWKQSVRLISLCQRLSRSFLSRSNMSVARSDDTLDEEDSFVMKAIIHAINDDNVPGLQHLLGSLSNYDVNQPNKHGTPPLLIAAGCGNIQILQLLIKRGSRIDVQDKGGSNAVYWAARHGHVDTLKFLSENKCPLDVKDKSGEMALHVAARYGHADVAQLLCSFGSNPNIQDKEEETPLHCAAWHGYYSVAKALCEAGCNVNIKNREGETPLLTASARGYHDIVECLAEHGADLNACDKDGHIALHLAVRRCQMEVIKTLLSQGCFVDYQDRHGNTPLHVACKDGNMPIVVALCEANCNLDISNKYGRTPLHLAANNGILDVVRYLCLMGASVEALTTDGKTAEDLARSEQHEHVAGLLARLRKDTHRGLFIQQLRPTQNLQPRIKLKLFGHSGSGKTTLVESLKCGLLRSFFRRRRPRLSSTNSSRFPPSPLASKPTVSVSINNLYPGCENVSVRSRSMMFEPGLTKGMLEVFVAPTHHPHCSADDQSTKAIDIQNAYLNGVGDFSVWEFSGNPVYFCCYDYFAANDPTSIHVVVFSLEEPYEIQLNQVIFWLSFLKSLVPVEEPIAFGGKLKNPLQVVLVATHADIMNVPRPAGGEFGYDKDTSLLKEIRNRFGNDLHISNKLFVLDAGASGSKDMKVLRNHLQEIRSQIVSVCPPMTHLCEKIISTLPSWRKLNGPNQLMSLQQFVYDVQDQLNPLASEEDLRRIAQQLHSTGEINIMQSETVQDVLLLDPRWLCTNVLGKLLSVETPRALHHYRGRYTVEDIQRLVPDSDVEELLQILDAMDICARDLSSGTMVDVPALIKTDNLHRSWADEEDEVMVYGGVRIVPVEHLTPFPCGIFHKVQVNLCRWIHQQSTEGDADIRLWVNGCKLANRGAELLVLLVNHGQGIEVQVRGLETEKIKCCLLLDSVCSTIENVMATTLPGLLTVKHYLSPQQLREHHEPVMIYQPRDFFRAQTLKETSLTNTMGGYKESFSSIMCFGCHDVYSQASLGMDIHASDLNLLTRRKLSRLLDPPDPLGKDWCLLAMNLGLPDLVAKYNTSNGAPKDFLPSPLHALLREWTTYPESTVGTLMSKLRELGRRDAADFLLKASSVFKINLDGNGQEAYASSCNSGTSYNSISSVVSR
experiment: Kinase Profiler, residual kinase activity
Type: biochemical
experimental parameters: DAPK1; inhibitor at 500 nM; read-out: percentage of the remaining kinase activity
measured quantity: remaining activity at 0.5 µM (%)
One number for each entry, in %.

Some solved entries appear below for comparison.
[
  {
    "molecule": "COC1C(N(C)C(=O)C(N)Cc2cn(C(=O)OC(C)(C)C)c3ccccc23)CC2OC1(C)n1c3ccccc3c3c4c(c5c6ccccc6n2c5c31)C(=O)NC4 (stereo not shown)",
    "unit": "%",
    "remaining activity at 0.5 µM": 107
  },
  {
    "molecule": "COC1C(N(C)C(=O)C(N)Cc2ccc(O)cc2)CC2OC1(C)n1c3ccccc3c3c4c(c5c6ccccc6n2c5c31)C(=O)NC4 (stereo not shown)",
    "unit": "%",
    "remaining activity at 0.5 µM": 105
  },
  {
    "molecule": "COC1C(N(C)C(=O)C(N)Cc2c[nH]cn2)CC2OC1(C)n1c3ccccc3c3c4c(c5c6ccccc6n2c5c31)C(=O)NC4 (stereo not shown)",
    "unit": "%",
    "remaining activity at 0.5 µM": 26
  },
  {
    "molecule": "COC1C(N(C)C(=O)C(N)CCC(=O)OC(C)(C)C)CC2OC1(C)n1c3ccccc3c3c4c(c5c6ccccc6n2c5c31)C(=O)NC4 (stereo not shown)",
    "unit": "%",
    "remaining activity at 0.5 µM": 101
  },
  {
    "molecule": "COC1C(N(C)C(=O)C(N)Cc2ccc(OC(C)(C)C)cc2)CC2OC1(C)n1c3ccccc3c3c4c(c5c6ccccc6n2c5c31)C(=O)NC4 (stereo not shown)",
    "unit": "%",
    "remaining activity at 0.5 µM": 96.4
  },
  {
    "molecule": "COC1C(N(C)Cc2ccc(-c3ccccc3)cc2)CC2OC1(C)n1c3ccccc3c3c4c(c5c6ccccc6n2c5c31)C(=O)NC4 (stereo not shown)",
    "unit": "%",
    "remaining activity at 0.5 µM": 116
  }
]

Query molecule follows.
Item: COC1C(N(C)C(=O)C(N)CCC(=O)O)CC2OC1(C)n1c3ccccc3c3c4c(c5c6ccccc6n2c5c31)C(=O)NC4 (stereo not shown) | System: DAPK1 (Homo sapiens, UniProt P53355) | remaining activity at 0.5 µM: 26.2

* * *

target under test: SRPK1 (Homo sapiens, UniProt Q96SB4)
Construct: purchased Research Biology Corp. (http://www.reactionbiology.com)
Sequence (Q96SB4 whole entry): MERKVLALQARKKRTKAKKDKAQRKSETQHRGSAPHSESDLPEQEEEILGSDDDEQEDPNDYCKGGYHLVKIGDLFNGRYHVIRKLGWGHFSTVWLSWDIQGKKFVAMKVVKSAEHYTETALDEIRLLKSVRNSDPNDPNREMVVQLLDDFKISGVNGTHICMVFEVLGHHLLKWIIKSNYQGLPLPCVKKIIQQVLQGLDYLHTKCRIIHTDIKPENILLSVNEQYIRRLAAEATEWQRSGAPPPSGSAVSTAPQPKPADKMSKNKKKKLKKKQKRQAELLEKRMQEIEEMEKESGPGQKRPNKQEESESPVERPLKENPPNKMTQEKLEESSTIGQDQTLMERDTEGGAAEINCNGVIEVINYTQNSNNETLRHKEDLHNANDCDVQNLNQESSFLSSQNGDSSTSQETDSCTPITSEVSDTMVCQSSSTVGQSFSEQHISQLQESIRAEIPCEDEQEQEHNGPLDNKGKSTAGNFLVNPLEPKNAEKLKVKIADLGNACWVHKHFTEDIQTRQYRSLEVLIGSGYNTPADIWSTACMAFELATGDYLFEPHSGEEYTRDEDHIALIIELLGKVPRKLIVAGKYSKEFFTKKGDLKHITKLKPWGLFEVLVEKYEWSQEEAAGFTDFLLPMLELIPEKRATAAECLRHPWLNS
experiment: Kinase Profiler, residual kinase activity
Type: biochemical
experimental parameters: SRPK1; inhibitor at 500 nM; read-out: percentage of the remaining kinase activity
From the text: Kinase Profiler services provided by […]. (http://www.reactionbiology.com) were used to analyze the data of the 9 type-S protein kinase inhibitors against the 40 types of protein kinases.
measured quantity: remaining activity at 0.5 µM (%)
Give bare numbers, in %.

Some solved entries appear below for comparison.
[
  {
    "molecule": "COC1C(N(C)Cc2ccc(-c3ccccc3)cc2)CC2OC1(C)n1c3ccccc3c3c4c(c5c6ccccc6n2c5c31)C(=O)NC4 (centres unmarked) [Compound 9]",
    "unit": "%",
    "remaining activity at 0.5 µM": 78.5
  },
  {
    "molecule": "COC1C(N(C)C(=O)C(N)Cc2cn(C(=O)OC(C)(C)C)c3ccccc23)CC2OC1(C)n1c3ccccc3c3c4c(c5c6ccccc6n2c5c31)C(=O)NC4 (centres unmarked) [Compound 2]",
    "unit": "%",
    "remaining activity at 0.5 µM": 95.7
  },
  {
    "molecule": "COC1C(N(C)C(=O)C(N)Cc2ccc(O)cc2)CC2OC1(C)n1c3ccccc3c3c4c(c5c6ccccc6n2c5c31)C(=O)NC4 (centres unmarked) [Compound 5]",
    "unit": "%",
    "remaining activity at 0.5 µM": 61.1
  },
  {
    "molecule": "CN[C@@H]1C[C@H]2O[C@@](C)([C@@H]1OC)n1c3ccccc3c3c4c(c5c6ccccc6n2c5c31)C(=O)NC4 [STU, staurosporine, reference compound]",
    "unit": "%",
    "remaining activity at 0.5 µM": 17.7
  },
  {
    "molecule": "COC1C(N(C)C(=O)C(N)CCC(=O)O)CC2OC1(C)n1c3ccccc3c3c4c(c5c6ccccc6n2c5c31)C(=O)NC4 (centres unmarked) [Compound 7]",
    "unit": "%",
    "remaining activity at 0.5 µM": 38.9
  },
  {
    "molecule": "COC1C(N(C)C(=O)C(N)Cc2c[nH]cn2)CC2OC1(C)n1c3ccccc3c3c4c(c5c6ccccc6n2c5c31)C(=O)NC4 (centres unmarked) [Compound 1]",
    "unit": "%",
    "remaining activity at 0.5 µM": 24.4
  }
]

List reported remaining activity at 0.5 µM for each of these molecules:
1. COC1C(N(C)C(=O)C(N)Cc2ccc(OC(C)(C)C)cc2)CC2OC1(C)n1c3ccccc3c3c4c(c5c6ccccc6n2c5c31)C(=O)NC4 (centres unmarked) [Compound 4]
2. COC1C(N(C)C(=O)C(N)CCC(=O)OC(C)(C)C)CC2OC1(C)n1c3ccccc3c3c4c(c5c6ccccc6n2c5c31)C(=O)NC4 (centres unmarked) [Compound 6]

Output:
[85, 65.3]

* * *

target under test: ABL1 (Homo sapiens)
Sequence (P00519 whole entry): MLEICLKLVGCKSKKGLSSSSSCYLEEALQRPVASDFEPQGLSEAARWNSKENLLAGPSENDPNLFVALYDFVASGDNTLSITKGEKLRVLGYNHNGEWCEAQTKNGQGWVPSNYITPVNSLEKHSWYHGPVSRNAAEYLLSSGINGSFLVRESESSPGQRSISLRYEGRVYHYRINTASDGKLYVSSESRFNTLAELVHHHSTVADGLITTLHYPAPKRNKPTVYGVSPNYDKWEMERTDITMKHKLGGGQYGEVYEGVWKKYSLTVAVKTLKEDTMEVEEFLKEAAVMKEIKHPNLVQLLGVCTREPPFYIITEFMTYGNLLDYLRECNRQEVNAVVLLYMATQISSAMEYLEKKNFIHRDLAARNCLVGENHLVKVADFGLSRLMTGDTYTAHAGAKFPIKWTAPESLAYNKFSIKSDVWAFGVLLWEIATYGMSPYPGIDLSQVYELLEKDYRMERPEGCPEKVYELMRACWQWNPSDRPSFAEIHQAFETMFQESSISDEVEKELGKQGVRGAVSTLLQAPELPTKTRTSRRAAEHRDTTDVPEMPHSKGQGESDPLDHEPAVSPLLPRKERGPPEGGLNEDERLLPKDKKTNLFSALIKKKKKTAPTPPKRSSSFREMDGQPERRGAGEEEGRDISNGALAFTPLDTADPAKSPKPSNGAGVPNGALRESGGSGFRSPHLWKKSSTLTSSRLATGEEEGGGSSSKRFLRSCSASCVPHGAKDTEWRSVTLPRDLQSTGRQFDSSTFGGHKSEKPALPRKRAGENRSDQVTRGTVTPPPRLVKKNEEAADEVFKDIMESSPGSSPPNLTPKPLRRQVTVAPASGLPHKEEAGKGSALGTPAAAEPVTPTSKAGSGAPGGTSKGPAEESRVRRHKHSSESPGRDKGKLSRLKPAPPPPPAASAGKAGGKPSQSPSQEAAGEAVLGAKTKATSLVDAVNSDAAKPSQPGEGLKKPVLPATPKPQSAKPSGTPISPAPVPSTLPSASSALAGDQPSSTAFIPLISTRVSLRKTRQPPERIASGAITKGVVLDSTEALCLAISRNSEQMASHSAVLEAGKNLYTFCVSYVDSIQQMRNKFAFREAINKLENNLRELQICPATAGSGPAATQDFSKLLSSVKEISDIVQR
experiment: Kinase Profiler, residual kinase activity
Assay type: biochemical
experimental parameters: ABL1; inhibitor at 500 nM; read-out: percentage of the remaining kinase activity
measured quantity: remaining activity at 0.5 µM (%)
Give bare numbers, in %.

Some solved entries appear below for comparison.
[
  {
    "molecule": "COC1C(N(C)C(=O)C(N)Cc2c[nH]cn2)CC2OC1(C)n1c3ccccc3c3c4c(c5c6ccccc6n2c5c31)C(=O)NC4 (stereo not shown)",
    "target under test": "ABL1 (Homo sapiens)",
    "measured value": 77.6
  },
  {
    "molecule": "COC1C(N(C)C(=O)C(N)Cc2cn(C(=O)OC(C)(C)C)c3ccccc23)CC2OC1(C)n1c3ccccc3c3c4c(c5c6ccccc6n2c5c31)C(=O)NC4 (stereo not shown)",
    "target under test": "ABL1 (Homo sapiens)",
    "measured value": 109
  },
  {
    "molecule": "COC1C(N(C)C(=O)C(N)Cc2ccc(O)cc2)CC2OC1(C)n1c3ccccc3c3c4c(c5c6ccccc6n2c5c31)C(=O)NC4 (stereo not shown)",
    "target under test": "ABL1 (Homo sapiens)",
    "measured value": 104
  }
]

List reported remaining activity at 0.5 µM for each of these molecules:
1. COC1C(N(C)Cc2ccc(-c3ccccc3)cc2)CC2OC1(C)n1c3ccccc3c3c4c(c5c6ccccc6n2c5c31)C(=O)NC4 (stereo not shown)
2. COC1C(N(C)C(=O)C(N)CCC(=O)O)CC2OC1(C)n1c3ccccc3c3c4c(c5c6ccccc6n2c5c31)C(=O)NC4 (stereo not shown)
3. COC1C(N(C)C(=O)C(N)CCC(=O)OC(C)(C)C)CC2OC1(C)n1c3ccccc3c3c4c(c5c6ccccc6n2c5c31)C(=O)NC4 (stereo not shown)

Output:
[84.9, 68, 97.6]

Summary for this molecule, COC1C(N(C)C(=O)C(N)Cc2ccc(OC(C)(C)C)cc2)CC2OC1(C)n1c3ccccc3c3c4c(c5c6ccccc6n2c5c31)C(=O)NC4 (stereo not shown) : remaining activity at 0.5 µM is 107

* * *

target under test: AKT1 (Homo sapiens, UniProt P31749)
Sequence (P31749 whole entry): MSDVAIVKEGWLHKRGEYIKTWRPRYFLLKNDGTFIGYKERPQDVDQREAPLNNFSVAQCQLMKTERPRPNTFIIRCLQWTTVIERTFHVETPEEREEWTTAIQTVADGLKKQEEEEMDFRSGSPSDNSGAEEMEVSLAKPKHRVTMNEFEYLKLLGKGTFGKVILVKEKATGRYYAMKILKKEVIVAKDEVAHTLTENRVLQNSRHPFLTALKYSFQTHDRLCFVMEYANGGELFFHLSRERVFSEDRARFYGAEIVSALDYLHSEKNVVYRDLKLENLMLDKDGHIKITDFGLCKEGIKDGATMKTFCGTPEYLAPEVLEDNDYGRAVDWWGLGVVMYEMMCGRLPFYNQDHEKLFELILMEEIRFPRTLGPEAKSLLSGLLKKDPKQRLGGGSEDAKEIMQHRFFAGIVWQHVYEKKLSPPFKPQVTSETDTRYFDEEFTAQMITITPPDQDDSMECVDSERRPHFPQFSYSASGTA
experiment: Kinase Profiler, residual kinase activity
Format: biochemical
experimental parameters: AKT1; inhibitor at 500 nM; read-out: percentage of the remaining kinase activity
I'd appreciate it if you could supply remaining activity at 0.5 µM values for the items below.

Some solved entries appear below for comparison.
[
  {
    "compound": "COC1C(N(C)C(=O)C(N)Cc2ccc(OC(C)(C)C)cc2)CC2OC1(C)n1c3ccccc3c3c4c(c5c6ccccc6n2c5c31)C(=O)NC4 (stereo not shown)",
    "remaining activity at 0.5 µM": "79.6%"
  },
  {
    "compound": "COC1C(N(C)C(=O)C(N)CCC(=O)OC(C)(C)C)CC2OC1(C)n1c3ccccc3c3c4c(c5c6ccccc6n2c5c31)C(=O)NC4 (stereo not shown)",
    "remaining activity at 0.5 µM": "67.5%"
  },
  {
    "compound": "COC1C(N(C)Cc2ccc(-c3ccccc3)cc2)CC2OC1(C)n1c3ccccc3c3c4c(c5c6ccccc6n2c5c31)C(=O)NC4 (stereo not shown)",
    "remaining activity at 0.5 µM": "46.9%"
  }
]

Query compound follows.
Summary for this compound, COC1C(N(C)C(=O)C(N)Cc2cn(C(=O)OC(C)(C)C)c3ccccc23)CC2OC1(C)n1c3ccccc3c3c4c(c5c6ccccc6n2c5c31)C(=O)NC4 (stereo not shown) : remaining activity at 0.5 µM is 97.6%
